// data source = patent US20240293588A1

- target_of_assay: T1, HER2 (human epidermal growth factor receptor 2) on cells (human, UniProt P04626 23-1255)
- T1 construct: whole, on cells; also called ERBB2; HER2 receptor
- measurement_description: flow cytometry (Cy5), BT-474 cells, 1 h, conjugate at 25 mM (so in the source)
measurement_name: MFI
Answer field: number only, no words.

binder: [[(ε-NHCO-PEG1100)8(α-NHDOTA)4.75(α-NHCy5)0.5(α-NH2)2.75][Lys]8[Lys]4[Lys]2[Lys]-CONH-CH2-CH2-S-]2MAL-PEG3-NHCO-PEG24-CONH-PEG4-(PhTzMe)/TCO-PEG3-NHCO-PEG24-Glu … (VHH, # (unnatural amino acid, p-azido-phenylalanine, after ...QVTVSS) clicked to the DBCO of SRS-20a (linker Compound 51 on dendrimer SRS-4-Mal: maleimide core, Cy5, DOTA, PEG1100)) VHH: EVQLVESGGSLVQPGGSLRLSCAASGFTFDDYAMSWVRQVPGKGLEWVSSINWSGTHTDYADSVKGRFTISRNNANNTLYLQMNSLKSEDTAVYYCAKNWRDAGTTWFEKSGSAGQGTQVTVSS
measured_value: 3400

Could you now look at the following binder, please?
Data request: Report measured MFI; entry is [(ε-NHCO-PEG1100)16(α-NHCy5)1(α-NHDOTA)8(α-NH2)7][Lys]16[Lys]8[Lys]4[Lys]2[Lys]-CONH-CH2-CH2-S-(Me)MAL-PEG24-CONH-Bn-Tz(Me)/TCO-NHCO-PEG24-(MAL)Me/Cys-Nanobody … (VHH, the additional cysteine (in …) coupled to the methylmaleimide of linker SRS-12 (intermediate SRS-14), whose TCO is joined to the tetrazine of dendron RP-5 (1 Cy5, 8 DOTA, 16 PEG1100)) VHH: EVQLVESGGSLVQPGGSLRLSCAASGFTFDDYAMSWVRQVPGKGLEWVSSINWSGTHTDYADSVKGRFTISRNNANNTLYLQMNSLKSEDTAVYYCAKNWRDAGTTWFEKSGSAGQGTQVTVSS
Data returned: 1450
